Biological target: human CD40 on cells (human, UniProt P25942 21-277)
Sequence (P25942 21-277 limits assumed): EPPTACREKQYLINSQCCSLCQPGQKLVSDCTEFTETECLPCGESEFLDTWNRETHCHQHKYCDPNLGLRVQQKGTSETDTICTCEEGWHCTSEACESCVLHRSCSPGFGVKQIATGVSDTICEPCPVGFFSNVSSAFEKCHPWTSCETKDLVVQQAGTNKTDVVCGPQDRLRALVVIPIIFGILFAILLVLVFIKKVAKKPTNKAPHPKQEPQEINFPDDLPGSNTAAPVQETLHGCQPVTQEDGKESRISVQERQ
Experiment: cell-based or functional assay
human B cell proliferation, with protein G crosslinking, EC50 reference
PROPERTY: human B cell proliferation, with protein G crosslinking, EC50 (nM)

>>> measured_number("36F3 (antibody, IgG4, V domains shown, also called 4891-1) VH: QVQLQQSGPGLVKPSQTLSLTCAISGDSVSSSRTAWNWIRQSPSRGLEWLGRTYYRSKWYHDYSVSVKSRITIDPDTSKNQFSLQLNSVTPEDTAVYYCARGAAPFDYWGQGTLVTVSS VL: EIVLTQSPGTLSLSPGERATLSCRASQSVSSNYLAWYQQKPGQAPRALIYAASNRAAGISDRFSGSGSGTDFTLTISRLEPEDFAVYFCQQYGSSPLTFGGGTKVEIKR")
0.558
>>> measured_number("37A6 (antibody, IgG4, V domains shown, also called 4865-1) VH: QVQLVESGGGLVKPGGSLRLSCAASEFTFSDYYMSWIRQAPGKGLEWVSYISRSGDTIYYADSVKGRFTISRDNAKNSLYLQMNGLRAEDTAVYYCARDLAAGATGGLDCWGQGTLVTVSS VL: SYELTQPPSVSVSPGQTASITCSGERLGNKYICWYQQKPGQSPVLVIYQDFKRPSGIPERFSGSNSGITATLTISGTQAMDEADYYCQAWDSRTVVFGGGTKLTVLG")
0.504
>>> measured_number("29H10 (antibody, V domains shown, also called 4877-1) VH: QVQLVQSGAEVTKPGASVKVSCKASGYTFAGYYMHWVRQAPGQGLEWMGWINPHSGGTNYAQKFQDRVTMTRDTSINTAYMELSRLRSDDTAVYYCARERISMVRGVGHNWFAPWGQGTLVTVSS VL: DIQMTQSPSSLSASVGDRVTITCRASQDISNNLAWFQQKPGKPPKSLMYAASSLHSGVPSTFSGSGSGTDFTFTISSLQPEDFATYYCQQYNSYPLTFGGGTKVEIRR")
0.235
